Test summary: Pharmacokinetic assay in rat
Details: male SD rats, i.g. 20 mg/kg vs 3 i.v. 2 mg/kg, dose-normalized AUC(0-t)
Documented F (oral bioavailability) across a set of compounds
Endpoint label: F (oral bioavailability) (%)

Compound	Numeric value
Cc1c(COC(=O)CCC(=O)O)c(=O)oc2c3c(ccc12)OC(C)(C)[C@H](OC(=O)[C@@]12CC[C@@](C)(C(=O)O1)C2(C)C)[C@@H]3OC(=O)[C@@]12CC[C@@](C)(C(=O)O1)C2(C)C (relative stereo) [Compound 8]	12.4
Cc1c(COC(=O)C(N)CC(C)C)c(=O)oc2c3c(ccc12)OC(C)(C)[C@H](OC(=O)[C@@]12CCC(C)(C(=O)O1)C2(C)C)[C@@H]3OC(=O)[C@@]12CCC(C)(C(=O)O1)C2(C)C (relative stereo) [Compound 12]	15.8
Cc1c(CO)c(=O)oc2c3c(ccc12)OC(C)(C)[C@H](OC(=O)C12CCC(C)(C(=O)O1)C2(C)C)[C@@H]3OC(=O)C12CCC(C)(C(=O)O1)C2(C)C (stereo partly drawn) [Compound 3, 3-hydroxymethyl-4-methyl-DCK]	17.3
Cc1c(COC(=O)CCC(=O)O)c(=O)oc2c3c(ccc12)OC(C)(C)[C@H](OC(=O)[C@@]12CC[C@@](C)(C(=O)O1)C2(C)C)[C@@H]3OC(=O)[C@@]12CC[C@@](C)(C(=O)O1)C2(C)C (relative stereo) [Compound 6]	3.3
Cc1c(COC(=O)CN)c(=O)oc2c3c(ccc12)OC(C)(C)[C@H](OC(=O)[C@@]12CCC(C)(C(=O)O1)C2(C)C)[C@@H]3OC(=O)[C@@]12CCC(C)(C(=O)O1)C2(C)C (relative stereo) [Compound 9]	7.5
Cc1c(COC(=O)CN)c(=O)oc2c3c(ccc12)OC(C)(C)[C@H](OC(=O)[C@@]12CCC(C)(C(=O)O1)C2(C)C)[C@@H]3OC(=O)[C@@]12CCC(C)(C(=O)O1)C2(C)C.Cl (relative stereo) [Compound 13]	9.8
